Catalogue of Collagen I in the dermis, Test 1 (% difference compared to the control) readings, one per entry.
system: Normal human dermal fibroblasts (NHF); test: ELISA test on normal human dermal fibroblasts (NHF): macromolecules in culture supernatants; format: cell-based; conditions: 4 ppm, Table 7 Test 1
Non-standard residues stand in square brackets, D forms with d. *: point of attachment. Met(O2) = CS(=O)(=O)CC[C@H](N)C(=O)O; Palmitoyl = CCCCCCCCCCCCCCCC(=O)*; Ava = NCCCCC(=O)O
VALUE KIND: Collagen I in the dermis, Test 1 (% difference compared to the control)

>>> assay_result("Pal-K-T-F-MO2-NH2: Dioxygenated peptide compound, SEQ ID NO 32 (Palmitoyl-KTF[Met(O2)]-NH2; SMILES CCCCCCCCCCCCCCCC(=O)N[C@@H](CCCCN)C(=O)N[C@H](C(=O)N[C@@H](Cc1ccccc1)C(=O)N[C@@H](CCS(C)(=O)=O)C(N)=O)[C@@H](C)O)")
"+106%"
>>> assay_result("Pal-K-Ava-MO2-K-OH: Dioxygenated peptide compound, SEQ ID NO 35 (Palmitoyl-K[Ava][Met(O2)]K-OH; SMILES CCCCCCCCCCCCCCCC(=O)N[C@@H](CCCCN)C(=O)NCCCCC(=O)N[C@@H](CCS(C)(=O)=O)C(=O)N[C@@H](CCCCN)C(=O)O)")
"+167%"
>>> assay_result("Pal-K-MO2-T-K-OH: Dioxygenated peptide compound, SEQ ID NO 33 (Palmitoyl-K[Met(O2)]TK-OH; SMILES CCCCCCCCCCCCCCCC(=O)N[C@@H](CCCCN)C(=O)N[C@@H](CCS(C)(=O)=O)C(=O)N[C@H](C(=O)N[C@@H](CCCCN)C(=O)O)[C@@H](C)O)")
"+45%"
>>> assay_result("Pal-K-F-MO2-K-OH: Dioxygenated peptide compound, SEQ ID NO 31 (Palmitoyl-KF[Met(O2)]K-OH; SMILES CCCCCCCCCCCCCCCC(=O)N[C@@H](CCCCN)C(=O)N[C@@H](Cc1ccccc1)C(=O)N[C@@H](CCS(C)(=O)=O)C(=O)N[C@@H](CCCCN)C(=O)O)")
"+80%"
>>> assay_result("Pal-K-T-MO2-K-OH: Dioxygenated peptide compound, SEQ ID NO 30 (Palmitoyl-KT[Met(O2)]K-OH; SMILES CCCCCCCCCCCCCCCC(=O)N[C@@H](CCCCN)C(=O)N[C@H](C(=O)N[C@@H](CCS(C)(=O)=O)C(=O)N[C@@H](CCCCN)C(=O)O)[C@@H](C)O)")
"+75%"
>>> assay_result("Pal-K-MO2-F-K-OH: Dioxygenated peptide compound, SEQ ID NO 34 (Palmitoyl-K[Met(O2)]FK-OH; SMILES CCCCCCCCCCCCCCCC(=O)N[C@@H](CCCCN)C(=O)N[C@@H](CCS(C)(=O)=O)C(=O)N[C@@H](Cc1ccccc1)C(=O)N[C@@H](CCCCN)C(=O)O)")
"+91%"

Reference source for all entries: patent US8697656B2
